- Protocol Summary: Effect of temperature (and pH) on the stability of the solution (purity)
- Assay type: physicochemical
- Test Conditions: 7% solution in water, pH 2.0, day 21, 40° C.
Record form. Attribute: Purity(%) at day 21 (40° C.). Fill in for each entry.
Note: unit % is implicit; provide only the numeric part.

Lookup: If you can, please state the reported Purity(%) at day 21 (40° C.) value of CCN(CC)CCOC(=O)C(C)c1ccc2oc(-c3ccc(Cl)cc3)nc2c1.Cl (centres unmarked) .
Found: 20.5

Lookup: Recorded Purity(%) at day 21 (40° C.) of CCN(CC)CCOC(=O)CCc1ccc2cc(OC)ccc2c1.Cl , please.
Found: 27.5

Lookup: // lookup Purity(%) at day 21 (40° C.) for CCN(CC)CCOC(=O)CC1=C(C)C(=Cc2ccc([S+](C)[O-])cc2)c2ccc(F)cc21.Cl (centres unmarked)
Found: 23.6

Lookup: Field request: Purity(%) at day 21 (40° C.) | item: CCN(CC)CCOC(=O)C(C)c1ccc(-c2ccccc2)c(F)c1.Cl (racemic)
Found: 30.1

Lookup: Would you kindly share the measured Purity(%) at day 21 (40° C.) for CCN(CC)CCOC(=O)Cc1c(C)n(C(=O)c2ccc(Cl)cc2)c2ccc(OC)cc12.Cl ?
Found: 27.5

----------
For each of the compounds below, state its Purity at Day 3.
- Protocol Summary: Effect of concentration on the stability of the solution (purity over time)
- Test Conditions: 15 wt %; in water at 25° C.
Only the number, expressed in %, is required.

Lookup: Item CCN(CC)CCOC(=O)Cc1ccc(C(=O)c2ccc(C)cc2)n1C.Cl has what recorded Purity at Day 3?
Found: 97.7

Lookup: Reported Purity at Day 3 for CCN(CC)CCOC(=O)CCc1ccc2cc(OC)ccc2c1.Cl : what is it?
Found: 98.4

Lookup: Data request, read-out Purity at Day 3, for CCN(CC)CCOC(=O)Cc1c(C)n(C(=O)c2ccc(Cl)cc2)c2ccc(OC)cc12.Cl
Found: 98.4

Lookup: Can you share its Purity at Day 3? I mean this compound: CCN(CC)CCOC(=O)CCc1nc(-c2ccccc2)c(-c2ccccc2)o1.Cl
Found: 98.7

Lookup: Query (compound): CCN(CC)CCOC(=O)Cc1sc(-c2ccccc2)nc1-c1ccc(Cl)cc1.Cl ; field requested: Purity at Day 3
Found: 98.7

Lookup: Return reported Purity at Day 3; argument: CCN(CC)CCOC(=O)CC1=C(C)C(=Cc2ccc([S+](C)[O-])cc2)c2ccc(F)cc21.Cl (stereo not shown)
Found: 97.4

Lookup: If you can, please state the reported Purity at Day 3 value of CCN(CC)CCOC(=O)C(C)c1ccc2oc(-c3ccc(Cl)cc3)nc2c1.Cl (stereo not shown) .
Found: 98.5

----------
Kindly state Purity(%) from day 0-14 for each of the entries shown.
- Protocol Summary: Effect of pH value on the stability of the solution (purity)
- Format: physicochemical
- Test Conditions: day 14, pH 4.0, 7% in water, 25° C.
// return numeric value only (unit: %, not printed)

Lookup: Data request, read-out Purity(%) from day 0-14, for CCN(CC)CCOC(=O)c1ccccc1OC(C)=O.O=C(O)/C=C\C(=O)O [A-1]
Found: 94.5

Lookup: Which Purity(%) from day 0-14 value belongs to CC(O)C(=O)O.CCN(CC)CCOC(=O)c1ccccc1OC(C)=O [A-3] ?
Found: 94.1

Lookup: Quick one: Purity(%) from day 0-14 of CCCCC(=O)O.CCN(CC)CCOC(=O)c1ccccc1OC(C)=O [A-4] ?
Found: 94.2

Lookup: Requested read-out: Purity(%) from day 0-14. Entry: CCN(CC)CCOC(=O)c1ccccc1OC(C)=O.O=C(O)c1ccccc1 [A-2]
Found: 95.0

All values here come from patent US20230157952A1.
